# Tested on: HT1080
# protocol-description: relative viability vs DMSO control (72 h) (fraction); higher = more viable cells
# measurement-conditions: 0.00051 µM

- compound: "CCCS(=O)(=O)N[C@H]1C[C@@H](N(C)c2ncnc3[nH]ccc23)C1 [Abrocitinib]"
  relative viability: 1.02
- compound: "COc1cc2ncnc(Nc3cccc(Cl)c3F)c2cc1OC(=O)N1CCN(C)C[C@H]1C [AZD-3759]"
  relative viability: 1.04
- compound: "COc1cc2c(Oc3ccc4[nH]c(C)cc4c3F)ccnc2cc1OCC1(N)CC1 [Anlotinib]"
  relative viability: 1.03
- compound: "C[C@@H]1COC(Nc2ccc3ncnc(Nc4ccc(OCc5nccs5)c(Cl)c4)c3c2)=N1 [Varlitinib]"
  relative viability: 1.03

###

The entries below come with measured standardised AUC values attached.
# System: VA-ES-BJ
# protocol-description: standardised AUC of viability dose-response curve (72 h) (fraction (0-1)); higher = less growth inhibition (more resistant)

- compound: "Cc1nc(Nc2ncc(C(=O)Nc3c(C)cccc3Cl)s2)cc(N2CCN(CCO)CC2)n1 [DASATINIB]"
  standardised AUC: 0.651
- compound: "COc1cc(Nc2c(C#N)cnc3cc(OCCCN4CCN(C)CC4)c(OC)cc23)c(Cl)cc1Cl [BOSUTINIB]"
  standardised AUC: 0.85
- compound: "COc1cc2nccc(Oc3ccc(NC(=O)NC4CC4)c(Cl)c3)c2cc1C(N)=O [LENVATINIB]"
  standardised AUC: 1
- compound: "CN(C)C[C@@H]1CCn2cc(c3ccccc32)C2=C(C(=O)NC2=O)c2cn(c3ccccc23)CCO1 [RUBOXISTAURIN]"
  standardised AUC: 0.946

###

# System: SK-ES-1
# protocol-description: relative viability vs DMSO control (72 h) (fraction); higher = more viable cells
# measurement-conditions: 10 µM
Simple rule here: relative viability less than 0.5 is TRUE, otherwise FALSE.

- entry-smiles: "Cc1cc(Nc2ncc(Cl)c(Nc3ccccc3S(=O)(=O)C(C)C)n2)c(OC(C)C)cc1C1CCNCC1"
  target: "SK-ES-1"
  label-value: "TRUE"
- entry-smiles: "CO[C@H]1C[C@@H]2CC[C@@H](C)[C@@](O)(O2)C(=O)C(=O)N2CCCC[C@H]2C(=O)O[C@H]([C@H](C)C[C@@H]2CC[C@@H](O)[C@H](OC)C2)CC(=O)[C@H](C)/C=C(\\C)[C@@H](O)[C@@H](OC)C(=O)[C@H](C)C[C@H](C)/C=C/C=C/C=C/1C"
  target: "SK-ES-1"
  label-value: "TRUE"
- entry-smiles: "Cc1c(F)cc(C(=O)NC2CC2)cc1-c1ccc(C(=O)NCC(C)(C)C)cn1"
  target: "SK-ES-1"
  label-value: "FALSE"
- entry-smiles: "Cc1nc(Nc2ncc(C(=O)Nc3c(C)cccc3Cl)s2)cc(N2CCN(CCO)CC2)n1"
  target: "SK-ES-1"
  label-value: "TRUE"
- entry-smiles: "COc1cc2ncnc(Nc3cccc(Cl)c3F)c2cc1OC(=O)N1CCN(C)C[C@H]1C"
  target: "SK-ES-1"
  label-value: "FALSE"
- entry-smiles: "C#Cc1cccc(Nc2ncnc3cc(OCCOC)c(OCCOC)cc23)c1"
  target: "SK-ES-1"
  label-value: "TRUE"
- entry-smiles: "FC(F)(F)c1ccc(CNc2ccc(Cc3c[nH]c4ncc(Cl)cc34)cn2)cn1"
  target: "SK-ES-1"
  label-value: "FALSE"
- entry-smiles: "CCCS(=O)(=O)N[C@H]1C[C@@H](N(C)c2ncnc3[nH]ccc23)C1"
  target: "SK-ES-1"
  label-value: "FALSE"
- entry-smiles: "CN1CCN(CCOc2cc(OC3CCOCC3)c3c(Nc4c(Cl)ccc5c4OCO5)ncnc3c2)CC1"
  target: "SK-ES-1"
  label-value: "FALSE"
- entry-smiles: "C=CC(=O)Nc1cc(Nc2nccc(-c3cn(C)c4ccccc34)n2)c(OC)cc1N(C)CCN(C)C"
  target: "SK-ES-1"
  label-value: "TRUE"

Measured values drawn from the supplement of paper PMC10883282 for this set.
